Data provenance: patent US10111890B2

PROTOCOL_TEXT: Phase 1 multiple oral dose (300, 450, 600 mg once daily x 5 days) crossover study: plasma pharmacokinetics
EXPERIMENTAL_SETUP: human, plasma, po, 300 mg, Mean Tmax, 300 mg oral once daily; Day 5
Description: Thus the study was designed as a Phase 1, randomized, double-blind, 3-period, crossover study in healthy adult subjects. The study consisted of a screening period (Day −21 through Day −2), 3 baseline periods (Day −1 of each period), 3 treatment periods (Day 1 through Day 6 of each period), and a study completion visit (within 6 to 10 days after the last dose of study drug in Period 3). There was a washout of at least 5 days between the last dose in one period and the first dose in the next period. […]

CHEM_SMILES: CN(C)c1cc(CNCC(C)(C)C)c(O)c2c1C[C@H]1C[C@H]3[C@H](N(C)C)C(O)=C(C(N)=O)C(=O)[C@@]3(O)C(O)=C1C2=O
Tmax, h: 2.5
